Test system: PLC/PRF/5
Assay Overview: Drug sensitivity, MTS cell viability assay (GI50)
Assay type: cell-based
Test Conditions: Homo sapiens, PLC/PRF/5, 96 hours
For each of the compounds below, state its GI50.
Report the figure in nM without appending any unit label.

# lookup: GI50 of COc1ccc(Oc2cc(C)c(-c3csc(NC(=O)c4ccncc4)n3)c(C)c2)cc1 [compound 101001]
91.6

# lookup: GI50 of CNC(=O)c1cc(Oc2ccc(NC(=O)Nc3ccc(Cl)c(C(F)(F)F)c3)cc2)ccn1 [sorafenib]
3760

# lookup: GI50 of COc1cccc2c1C(=O)c1c(O)c3c(c(O)c1C2=O)C[C@@](O)(C(=O)CO)C[C@@H]3O[C@H]1C[C@H](N)[C@H](O)[C@H](C)O1 [doxorubicin]
69.7

# lookup: GI50 of CC[C@@]1(O)C(=O)OCc2c1cc1n(c2=O)Cc2cc3c(CN(C)C)c(O)ccc3nc2-1 [topotecan]
174

# lookup: GI50 of CC(=O)O[C@H]1C(=O)[C@@]2(C)[C@H]([C@H](OC(=O)c3ccccc3)[C@]3(O)C[C@H](OC(=O)[C@H](O)[C@@H](NC(=O)c4ccccc4)c4ccccc4)C(C)=C1C3(C)C)[C@]1(OC(C)=O)CO[C@@H]1C[C@@H]2O [paclitaxel]
8.58
